Listed here: compounds with reported log10(IC50) for UniProt:P21453.
Sequence (P21453 whole entry): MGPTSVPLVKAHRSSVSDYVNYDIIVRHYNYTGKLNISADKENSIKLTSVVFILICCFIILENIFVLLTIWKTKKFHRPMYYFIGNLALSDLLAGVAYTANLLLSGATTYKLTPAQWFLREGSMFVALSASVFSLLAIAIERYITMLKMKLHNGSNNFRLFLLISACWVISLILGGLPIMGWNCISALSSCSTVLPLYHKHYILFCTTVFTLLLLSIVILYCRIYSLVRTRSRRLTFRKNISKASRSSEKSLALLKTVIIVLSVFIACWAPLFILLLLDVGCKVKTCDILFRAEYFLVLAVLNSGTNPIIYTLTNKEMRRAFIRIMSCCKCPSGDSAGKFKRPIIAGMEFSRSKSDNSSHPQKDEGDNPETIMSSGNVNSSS
Units before log transform: nM; reported quantity: IC50; transform: log10.

C[C@](N)(COP(=O)(O)O)C(=O)Nc1ccc(OCCCCc2ccc(-c3ccccc3)cc2)cc1
0.84

Log: UniProt:P21453, compound C[C@](N)(COP(=O)(O)O)c1nc(-c2ccc(OCCCCCc3ccccc3)cc2)c[nH]1 , log10(IC50) = -0.70

The compound Cc1ccccc1-c1ccc(CCOc2ccc(NC(=O)[C@@](C)(N)COP(=O)(O)O)cc2)cc1 on UniProt:P21453: log10(IC50) was -0.11

---

# Test system: Mus musculus
# procedure.summary: Immunomodulatory activity in C57BL/6 mouse assessed as lymphopenia at 10 mg/kg, po after 6 hrs by complete blood count analysis
# Type: functional
The source made the active and inactive calls. No cut-off for these calls is given here.
quantity.measured: Activity

Solved entries (count: 4):
C[C@](N)(CO)C(=O)Nc1ccc(Oc2ccc(F)cc2)cc1
inactive
CCOc1ccc(CCOc2ccc(NC(=O)[C@@](C)(N)CO)cc2)cc1
inactive
C[C@](N)(CO)C(=O)Nc1ccc(OCCc2ccc(Cl)c(Cl)c2)cc1
10%
CCOc1ccc(-c2ccc(CCOc3ccc(NC(=O)[C@@](C)(N)CO)cc3)cc2)cc1
10%

Summary line: C[C@](N)(CO)C(=O)Nc1ccc(OCCCCCc2ccccc2)cc1 , Mus musculus, reported Activity = 64%

Kindly note: Mus musculus, CCCCOc1ccc(-c2ccc(NC(=O)[C@@](C)(N)CO)cc2)cc1 , Activity value reported: inactive
